protocol: Study MPKF: plasma pharmacokinetics of MDMA and MDA, single 120 mg MDMA·HCl, fasted/fed
Assay type: in vivo, human
experimental.conditions: human, plasma, po, 120 mg, Fed (N = 14); 120 mg MDMA·HCl; geometric mean; read-out: AUC0-t
experimental.endpoint: AUC(0-t) (ng·h/mL)
Write the answer as a number in ng·h/mL, unit excluded.

Lookup: # query: AUC(0-t) of entry CC(N)Cc1ccc2c(c1)OCO2 (stereo not shown) [MDA, 3,4-methylenedioxyamphetamine]
Found: 255

###

protocol: Study MPKF: plasma pharmacokinetics of MDMA and MDA, single 120 mg MDMA·HCl, fasted/fed
Type: in vivo, human
experimental.conditions: human, plasma, oral, 120 mg, fed treatment group; .5 h; read-out: PK plasma concentration, Mean
experimental.endpoint: concentration at 0.5 h
Answer format: number, then unit.

Lookup: Looking for the measured concentration at 0.5 h of CNC(C)Cc1ccc2c(c1)OCO2 (stereo not shown) [MDMA, 3,4-methylenedioxymethamphetamine] , can you help?
Found: 10.2 ng/mL
